Assay: endothelial E-selectin expression blockers – imaging, HUVEC, immunofluorescence, MLSMR starter and 10KST1 sets, primary screen (AID 487);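 further: 100% = median nuclei count of all wells on the same plate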
Details: HUVEC TNFalpha-induced E-selectin immunofluorescence imaging, at 2 µM; measured here: cell number, toxicity
QUANTITY_KIND: nuclei count (%)
One number for each entry, in %.

Consider the following illustrative entries.
[
  {
    "COMPOUND": "COc1cccc(CNC(=O)CCS(=O)(=O)c2cccc3nsnc23)c1",
    "UNITS": "%",
    "nuclei count": 109
  },
  {
    "COMPOUND": "CCOC(=O)c1ccc(NC(=O)CCc2c(C)nc3ncnn3c2C)cc1",
    "UNITS": "%",
    "nuclei count": 116
  },
  {
    "COMPOUND": "Cc1ccc(NC(=O)CSc2nnc(Cc3cccn3C)n2-c2ccc(F)cc2)cc1",
    "UNITS": "%",
    "nuclei count": 91.3
  },
  {
    "COMPOUND": "CC(C)(C)n1nnnc1CN1CCN(C2CCCC2)CC1",
    "UNITS": "%",
    "nuclei count": 107
  },
  {
    "COMPOUND": "COc1ccc2nc(NC(=O)c3ccoc3C)sc2c1",
    "UNITS": "%",
    "nuclei count": 118
  }
]

Each of the following entries comes with a recorded value; kindly state nuclei count for each.
1. COc1ccc(-c2noc(CN(C(=O)C(C)(C)C)C(C)C)n2)cc1
2. COc1ccc2nc(NC(=O)C3CCCN(S(=O)(=O)c4cccc5nsnc45)C3)sc2c1 (stereo not drawn)
3. CC(C)c1ccc(NC(=O)CCNS(=O)(=O)c2cccc3nonc23)cc1
4. Cc1ccc(CNC(=O)COC(=O)c2c(C)noc2C)cc1
5. COc1ccccc1NC(=O)c1ccc(COc2ccccc2OC)o1
6. COc1ccc(C(=O)N(CCN2CCOCC2)CC(=O)NC2CCCC2)cc1OC
7. Cc1cc2nc(C3CCN(CC4COc5ccccc5O4)CC3)[nH]c2cc1C (stereo not drawn)
8. CCN(Cc1cc2cc(OC)ccc2[nH]c1=O)C(=O)c1ccncc1

Response:
117
122
106
57.1
107
109
107
198
